tested on: U2OS; test: Multiplex assay against U2OS; assay type: toxicity, cell-based; settings: human, 24 h, 10 µM, compound concentration 10 uM, replicate 2
Reported Population Normal (%) values follow for various compounds
Lab book: enter the figure in %, no units written.

These solved cases illustrate the format of a correct answer.
# MOLECULE, EXPERIMENTAL_TARGET, Population Normal (%)
measured = [
    ("Cc1nc2ccc(Oc3ccc(F)cc3)cc2c(=O)n1C[C@H]1CCCN(C(C)C)C1.Cl", "U2OS", 93),
    ("COc1cc(C(=O)N(CCCc2ccccc2)Cc2ccc(CC(=O)O)cc2)cc(OC)c1C", "U2OS", 97),
    ("O=C(O)Cc1ccccc1Nc1c(Cl)cccc1Cl", "U2OS", 98),
    ("CC[C@H]1OC(=O)[C@H](C)[C@@H](O[C@H]2C[C@@](C)(OC)[C@@H](O)[C@H](C)O2)[C@H](C)[C@@H](O[C@@H]2O[C@H](C)C[C@H](N(C)C)[C@H]2O)[C@@]2(C)CC(C)=C(O2)[C@H](C)[C@@H](O)[C@]1(C)O", "U2OS", 95),
]

The measured Population Normal (%) that `CCCn1c(=O)c2[nH]c(C3CCCC3)nc2n(CCC)c1=O` showed for U2OS is 95
